experiment: log Pow* calculated by Formula 2 from log Pow and the polarity parameter P′(x) of the ethanol/water mixture; details: solvent ethanol, proportion 4%
measure-name: log Pow* (P′ 4%)
Returns: the value as a bare number; no unit string appended.

A selection of reference data follows.
CCCCCC1CCCC(=O)O1 (stereo not drawn) [delta decalactone] ... 2.26
C=C(C)[C@@H]1CCC2=CC(=O)C[C@@H](C)[C@]2(C)C1 [Nootkatone] ... 4.01
CCC/C=C/C=O [2E-hexenal] ... 1.37

Could you now look at the following compound, please?
Indicate the recorded log Pow* (P′ 4%) value for this compound: CCCCCC(=O)OC [Methylcapronate]
2.13

====

assay: log Pow* calculated by Formula 2 from log Pow and the polarity parameter P′(x) of the ethanol/water mixture; conditions: solvent ethanol, proportion 8%
measure-name: log Pow* (P′ 8%)
Enter a number only.

# example entries with known answers
CCC/C=C/CO [2E-hexenol] ... 1.33
c1ccc2[nH]ccc2c1 [Indole] ... 1.80
CC/C=C\CC1CCCC(=O)O1 (stereo not drawn) [Jasmine lactone] ... 2.17
OCc1ccco1 [Furfuryl alcohol] ... −2.35

Indicate the recorded log Pow* (P′ 8%) value for this compound: CCC/C=C/C=O [2E-hexenal]
1.15

====

assay: log Pow* calculated by Formula 2 from log Pow and the polarity parameter P′(x) of the ethanol/water mixture; conditions: solvent ethanol, proportion 2%
measure-name: log Pow* (P′ 2%)
Please reply with the value in numeric form only.

Example entries begin here.
O=Cc1ccccc1 ... 1.52
Oc1ccccc1 ... 1.35
CCC/C=C/CO ... 1.64
c1ccc2[nH]ccc2c1 ... 2.05
CS ... 0.34

Read off the recorded log Pow* (P′ 2%) for CC1=CCC(C(C)(C)S)CC1 (stereo not shown)
3.99

For the compound OCc1ccco1 , give its measured log Pow* (P′ 2%) value.
−0.43

Identify measured log Pow* (P′ 2%) corresponding to CC(=O)/C=C/C1=C(C)CCCC1(C)C
3.80

Note down log Pow* (P′ 2%) recorded for C/C=C/C(=O)C1=C(C)C=CCC1(C)C
4.35

Fill in reported log Pow* (P′ 2%) for this entry: O=Cc1ccco1
0.46

Return log Pow* (P′ 2%) (reported value) for this compound: CC/C=C\CC1CCCC(=O)O1 (stereo not shown)
2.39

Identify log Pow* (P′ 2%) associated with the compound CCCCCC(=O)OC [Methylcapronate]
2.21

Tell us which log Pow* (P′ 2%) value is on record for CCCCCCC1CCC(=O)O1 (stereo not shown)
2.30

====

test: log Pow* calculated by Formula 2 from log Pow and the polarity parameter P′(x) of the ethanol/water mixture
measure-name: log Pow* (P′ 2%)
Write no unit; give the number alone.

CCCSSCCC [Dipropyldisulfide] ... 3.85
C=CC(C)(O)CCC=C(C)C (stereo not drawn) ... 3.22

Turning to the following compound.
Look up log Pow* (P′ 2%) of CC(C)=CCCC(C)=CC=O and report it.
3.11

====

test: log Pow* calculated by Formula 2 from log Pow and the polarity parameter P′(x) of the ethanol/water mixture; conditions: solvent ethanol, proportion 6%
measure-name: log Pow* (P′ 6%)
Keep the answer to the number alone.

Give me measured log Pow* (P′ 6%), please, for this molecule: O=Cc1ccccc1
1.30

State its log Pow* (P′ 6%): CCC/C=C/C=O
1.26

Identify the reported log Pow* (P′ 6%) for the following entry. C/C=C/C(=O)C1=C(C)C=CCC1(C)C
4.27

====

assay: log Pow* calculated by Formula 2 from log Pow and the polarity parameter P′(x) of the ethanol/water mixture; settings: solvent ethanol, proportion 100%
Reported log Pow* (P′ 100%) values are given for each entry in this list.
Respond with the number and no other words.

Please give the documented log Pow* (P′ 100%) of CC(=O)/C=C/C1C(C)=CCCC1(C)C (stereo not shown)
2.75

====

assay: log Pow* calculated by Formula 2 from log Pow and the polarity parameter P′(x) of the ethanol/water mixture
measure-name: log Pow* (P′ 90%)
Please give only the number in your answer, with no unit.

CC/C=C\CC1C(=O)CCC1CC(=O)OC (centres unmarked) [Methyl jasmonate] ... 0.18
CCCCCC=O ... −0.12
C=CC(C)(O)CCC=C(C)C (centres unmarked) ... 2.03
CCCSSC [Methylpropyldisulfide] ... 1.38
CC(C)CCO ... −1.93
CCCSSCCC [Dipropyldisulfide] ... 2.85
CCCC(=O)OCC [Ethylbutyrate] ... −0.55
CCCCCCCC=O ... 1.67
CC(C)=CCCC(C)=CC=O ... 1.87
C=Cc1ccc(O)c(OC)c1 ... 0.82

Tell us which log Pow* (P′ 90%) value is on record for CCCCCCOC(C)=O [Hexylacetate]
1.38

====

assay: log Pow* calculated by Formula 2 from log Pow and the polarity parameter P′(x) of the ethanol/water mixture; details: solvent ethanol, proportion 70%
Each entry below carries its reported log Pow* (P′ 70%).
Give the figure only, with no unit attached.

CCC/C=C/CO [2E-hexenol] ... −0.33
CCCCCC(=O)OC [Methylcapronate] ... 0.72

Quote log Pow* (P′ 70%) reported for CC(=O)/C=C/C1C(C)=CCCC1(C)C (stereo not drawn) [alpha-ionone] please.
2.92

Identify the reported log Pow* (P′ 70%) for the following entry. CC(=O)C(C)=O [Diacetyl]
−4.07

# return recorded log Pow* (P′ 70%) for entry C=C(C)[C@@H]1CCC2=CC(=O)C[C@@H](C)[C@]2(C)C1 [Nootkatone]
3.21

Name the recorded log Pow* (P′ 70%) of the item OCc1ccco1 [Furfuryl alcohol] in your answer.
−12.73

Consider the compound Oc1ccccc1 [Phenol] and give its recorded log Pow* (P′ 70%).
−0.98

Dear colleague, please send me the reported log Pow* (P′ 70%) for CCCCOC(C)=O [Butylacetate] when you can.
−0.29

Let me know recorded log Pow* (P′ 70%) for CCCCCC1CCCC(=O)O1 (stereo not shown) [delta decalactone] , thanks.
0.92

Consider the compound CCOC(=O)C(C)CC (stereo not shown) [Ethylmethylbutyrate-2] . State its measured log Pow* (P′ 70%).
0.85

Provide one value: measured log Pow* (P′ 70%) of CC(=O)/C=C/C1=C(C)CCCC1(C)C [beta-ionone]
2.90

Provide only the value of recorded log Pow* (P′ 70%) for O=Cc1ccco1 [Furfural]
−4.26

====

assay: log Pow* calculated by Formula 2 from log Pow and the polarity parameter P′(x) of the ethanol/water mixture
measure-name: log Pow* (P′ 80%)

CCCSSCCC [Dipropyldisulfide] ... 2.90
C=CC(C)(O)CCC=C(C)C (centres unmarked) ... 2.09
CCCCCCCC=O ... 1.75
CCCCCC=O ... 0.00

Note down log Pow* (P′ 80%) recorded for CC(C)CCO
−1.76

Tell me log Pow* (P′ 80%) reported for CCCCCCOC(C)=O [Hexylacetate]
1.46

====

log Pow values, listed per item
assay: log Pow: distribution coefficient between 1-octanol and water; conditions: 1-octanol/water
Just the number, please.

CCCSSC [Methylpropyldisulfide] ... 2.83
CCCSSCCC [Dipropyldisulfide] ... 3.90
CS ... 0.65
CCCCCC1CCCC(=O)O1 (centres unmarked) ... 2.42
CCCCCCCC=O ... 3.03
CC/C=C\CC1C(=O)CCC1CC(=O)OC (centres unmarked) [Methyl jasmonate] ... 2.12
CC(C)=CCCC(C)=CC=O ... 3.17
CCCCCCC1CCC(=O)O1 (centres unmarked) ... 2.38

Answer with reported log Pow of CCCCOC(C)=O [Butylacetate]
1.77

Quote log Pow reported for c1ccc2[nH]ccc2c1 please.
2.14

====

Measured log Pow* (P′ 30%) by item
assay: log Pow* calculated by Formula 2 from log Pow and the polarity parameter P′(x) of the ethanol/water mixture
Lab note: jot down the number only; don't add units.

CCCC(=O)OCC [Ethylbutyrate] ... 0.55
CC(C)=CCCC(C)=CC=O [Citral] ... 2.49
CCCCCCOC(C)=O [Hexylacetate] ... 2.06
CCCCCC=O [Hexanal] ... 0.87
CC(C)CCO [3-mebutanol, 3-methylbutanol] ... −0.41

Specify measured log Pow* (P′ 30%) for CC/C=C\CC1C(=O)CCC1CC(=O)OC (centres unmarked) [Methyl jasmonate] .
1.10

For the compound C=Cc1ccc(O)c(OC)c1 , give its reported log Pow* (P′ 30%).
1.61

====

assay: log Pow* calculated by Formula 2 from log Pow and the polarity parameter P′(x) of the ethanol/water mixture
measure-name: log Pow* (P′ 10%)
API doc: respond with a numeric literal and nothing else, no unit.

C=Cc1ccc(O)c(OC)c1 ... 2.12

Write down log Pow* (P′ 10%) measured for item CCCCCCCC=O
2.73

Specify reported log Pow* (P′ 10%) for the compound shown: CC(C)CCO
0.58

Using the record for CCCCCCOC(C)=O [Hexylacetate] , state its measured log Pow* (P′ 10%).
2.51
